- test_summary: Metabolic stability in rat liver microsomes assessed as parent compound remaining measured after 30 mins in presence of NADPH by LC-MS/MS analysis
- Format: ADME, Microsome
- conditions_used: read-out: Stability
property_name: remaining at 0.5 h (%)

Please review the following examples before continuing.
In [3]: df
Out[3]:
                                   compound  readout_number
0  O=C(c1ccc2ccccc2c1)C(F)(F)C(NCc1ccccc1)c1ccccc1 (stereo not given)             3.5
1  CC(C)(C)OC(=O)NC(c1ccccc1)C(F)(F)C(=O)c1ccc2c(c1)OCO2 (stereo not given)             2.5

a = Cc1ccc(NC(c2ccc(F)cc2)C(F)(F)C(=O)c2ccc3ccccc3c2)cc1C (stereo not given)
b = O=C(c1cccc(SCc2ccccc2)c1)C(F)(F)C(NCc1ccccc1)c1ccccc1 (stereo not given)
Select the item whose remaining at 0.5 h value is smaller, choosing between a and b . Please identify the chosen entry by its label.
a

====

- test_summary: Stability in rat serum assessed as parent compound remaining measured after 30 mins by LC-MS analysis
- Type: ADME, cell-free
- conditions_used: read-out: Stability
property_name: remaining at 0.5 h (%)

>>> print(df.to_string())
                                    molecule  endpoint_unit  readout_number
 0  C/C=C/C=C/C(NCc1ccccc1)C(F)(F)C(=O)c1ccc2ccccc2c1 (centres undefined)              %             100
 1  O=C(c1ccc2ccccc2c1)C(F)(F)C(Nc1ccccc1)c1ccccc1 (centres undefined)              %              85
 2  O=C(C12CC3CC(CC(C3)C1)C2)C(F)(F)C(NCc1ccccc1)c1ccccc1 (centres undefined)              %             100
 3  O=C(c1ccc(Cl)cc1)C(F)(F)C(NCc1ccccc1)c1ccccc1 (centres undefined)              %              87
 4  CC(C)(C)OC(=O)NC(c1cccc(F)c1)C(F)(F)C(=O)c1ccc2ccccc2c1 (centres undefined)              %              98
 5  O=C(c1ccc2ccccc2c1)C(F)(F)C(O)c1cccc(F)c1 (centres undefined)              %              82
 6  CC(C)(C)OC(=O)NC(c1ccc(F)cc1)C(F)(F)C(=O)c1ccc(Cl)cc1 (centres undefined)              %            80.5
 7  O=C(c1ccc2c(c1)OCO2)C(F)(F)C(O)c1ccc(Cl)cc1 (centres undefined)              %              85
 8  CC(=O)c1ccc(C(O)C(F)(F)C(=O)c2ccc3ccccc3c2)cc1 (centres undefined)              %            86.5
 9  CC(C)(C)OC(=O)NC(c1ccccc1)C(F)(F)C(=O)c1ccc2ccccc2c1 (centres undefined)              %            71.5
10  COc1ccc(C(O)C(F)(F)C(=O)c2ccc3ccccc3c2)cc1 (centres undefined)              %            88.5
11  CC(C)(C)OC(=O)NC(c1ccc(F)cc1)C(F)(F)C(=O)c1ccc2ccccc2c1 (centres undefined)              %             100
12  CC(C)(C)OC(=O)NC(c1ccccc1)C(F)(F)C(=O)c1ccc2c(c1)OCO2 (centres undefined)              %             100
13  Cc1ccc(NC(c2ccc(F)cc2)C(F)(F)C(=O)c2ccc3ccccc3c2)cc1C (centres undefined)              %              74
14  O=C(c1ccc2c(c1)OCO2)C(F)(F)C(O)c1ccccc1 (centres undefined)              %            83.5
15  COc1ccc(NC(c2ccc(OC)cc2)C(F)(F)C(=O)c2ccc3ccccc3c2)cc1 (centres undefined)              %             100
16  CC(C)(C)OC(=O)NC(c1ccccc1)C(F)(F)C(=O)c1ccc(Cl)cc1 (centres undefined)              %              99
